The reader will find reported pest or weed control at 25 µg/mL values listed item by item below.
tested on: corn rust; experiment: Protectant activity in vivo (whole plant), corn rust; details: Zea mays, 168 h, 25 mg/L, read-out: protectant activity against corn rust
Dear colleague, please return just the value in %, with no unit written.

Use these answered entries as a reference point.
compound	target or test system	pest or weed control at 25 µg/mL / %
Cc1ncnc(NC(C)c2ccc3c(c2)OC(F)(F)O3)c1Cl (centres unmarked) [PC-1]	corn rust	0
FC(F)c1ncnc(NCc2ccc3c(c2)OCO3)c1Cl [CK9]	corn rust	0
ClCc1ncnc(NCCc2ccc3c(c2)OCO3)c1Cl [CK11]	corn rust	0
CCc1ncnc(NCc2ccc3c(c2)OCO3)c1Cl [CK1]	corn rust	0

Proceed to the following item.
Qu. So what does the record say about pest or weed control at 25 µg/mL for CCc1ncnc(NCCc2ccc3c(c2)OCO3)c1Cl [Compound 1465] ?
Ans. 50

* * *

tested on: carmine spider mite; assay: Acaricidal activity against carmine spider mite (airbrush spray); format: in vivo; details: Tetranychus cinnabarinus; 100 mg/L, adults, mortality after 72 hrs
readout kind: pest or weed control at 100 µg/mL

molecule	pest or weed control at 100 µg/mL
ClCc1ncnc(NCCc2ccc3c(c2)OCO3)c1Cl	25%
COc1cc(CNc2ncnc(C)c2Cl)ccc1O	0%
Cc1ncnc(NC(C)c2ccc3c(c2)OC(F)(F)O3)c1Cl (stereo not shown)	51%
COc1ccc(CNc2ncnc(C(F)F)c2Cl)cc1OC	0%
Cc1c(Cl)c(NCCc2ccc3c(c2)OCO3)nc[n+]1CC(=O)c1ccc(Cl)cc1	0%
c1ccc2c(NCCc3ccc4c(c3)OCO4)ncnc2c1	0%
Cc1ncnc(NCc2ccc3c(c2)OCO3)c1Cl	0%
FC(F)c1ncnc(NCc2ccc3c(c2)OCO3)c1Cl	0%
Cc1ncnc(NCCc2ccc(O)cc2)c1Cl	0%
c1ccc2c(NCc3ccc4c(c3)OCO4)ncnc2c1	0%

Qu. So what does the record say about pest or weed control at 100 µg/mL for COc1ccc(CCNc2ncnc(C(F)F)c2Cl)cc1OC ?
Ans. 0%

Qu. And for CCc1ncnc(NCc2ccc3c(c2)OCO3)c1Cl ?
Ans. 39%

Qu. And for ClCc1ncnc(NCc2ccc3c(c2)OCO3)c1Cl ?
Ans. 0%

* * *

tested on: Green peach aphids (Myzus Persicae Sulzer); assay: Activity against green peach aphid (airbrush foliar spray); type: in vivo; conditions: Myzus persicae, foliar, 48 h, 100 mg/L, death rate after 48 h; read-out: Insecticidal activity against peach aphid (control)
Everything with pest or weed control at 100 µg/mL lower than 30% is class 0; everything else, including exactly 30%, is class 1.

compound	qualitative label
CCc1ncnc(NCCc2ccc3c(c2)OCO3)c1Cl	class 1
COc1ccc(CCNc2ncnc(C(F)F)c2Cl)cc1OC	class 1
COc1ccc(CCNc2ncnc(C(F)(F)F)c2Cl)cc1OC	class 1
Cc1ncnc(NC(C)c2ccc3c(c2)OC(F)(F)O3)c1Cl (stereo not drawn)	class 0
c1ccc2c(NCc3ccc4c(c3)OCO4)ncnc2c1	class 0

Qu. Reported pest or weed control at 100 µg/mL at or above 30%? Cc1ncnc(NCc2ccc3c(c2)OCO3)c1Cl
Ans. class 0

Qu. And for ClCc1ncnc(NCCc2ccc3c(c2)OCO3)c1Cl ?
Ans. class 0

Qu. And for ClCc1ncnc(NCc2ccc3c(c2)OCO3)c1Cl ?
Ans. class 0
